- Tested on: T47D;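 note: growth inhibition of human T47D cells, measured with a cell viability assay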
- assay.remarks: cells
- Format: functional, cell-based, Homo sapiens
- conditions: Homo sapiens, T47D
- Description: SANGER: Inhibition of human T47D cell growth in a cell viability assay.
Can you tell me IC50 for the items I'm about to list?

# IC50 of "O=C(O)c1ccc(-c2c[nH]c3ncc(-c4ccccc4)cc23)cc1C1CCCC1" = > 16 µM

# IC50 of "Cn1cnc2c(F)c(Nc3ccc(Br)cc3Cl)c(C(=O)NOCCO)cc21" = > 4 µM

For this compound ( "N#Cc1c(O)c2c(-c3ccc(-c4ccccc4O)cc3)csc2[nH]c1=O" ), measured IC50 is > 1.02 µM

---

Hi there, I'd appreciate the recorded IC50 for every entry that follows.
- Test system: SW 962;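 note: growth inhibition of human SW962 cells, read out by a cell viability assay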
- assay.remarks: cells
- Type: functional, cell-based, Homo sapiens
- conditions: Homo sapiens, SW 962
- Description: SANGER: Inhibition of human SW962 cell growth in a cell viability assay.

// IC50 lookup, compound = "C#Cc1cccc(Nc2ncnc3cc(OCCOC)c(OCCOC)cc23)c1" , result: > 2000 nM

IC50 for "CC[C@H](CO)Nc1nc(NCc2ccccc2)c2ncn(C(C)C)c2n1" is > 16000 nM

Record "CS(=O)(=O)c1ccc(C(=O)Nc2ccc(Cl)c(-c3ccccn3)c2)c(Cl)c1" . Reported IC50: > 10000 nM

According to the records, this compound COc1cc2ncn(-c3cc(OCc4ccccc4C(F)(F)F)c(C(N)=O)s3)c2cc1OC [GW843682X] displays IC50 of 42.2 nM

---

- System: HD-MY-Z;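 note: growth inhibition of HD-MY-Z cells, read out with a cell viability assay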
- assay.remarks: cells
- Type: functional, cell-based, Homo sapiens
- conditions: Homo sapiens, HD-MY-Z
- Description: SANGER: Inhibition of human HD-MY-Z cell growth in a cell viability assay.
property: IC50

Hey, HD-MY-Z data for Nc1cccc2c1CN(C1CCC(=O)NC1=O)C2=O (centres undefined) [LENALIDOMIDE] : IC50 came out at > 5 µM

Value sought: IC50, system HD-MY-Z, item "CS(=O)(=O)c1ccc(C(=O)Nc2ccc(Cl)c(-c3ccccn3)c2)c(Cl)c1" . Result: > 10 µM

Reported IC50 (HD-MY-Z) for entry "Oc1ccc2ccccc2c1SSc1c(O)ccc2ccccc12" is > 32 µM

// molecule "Cn1cnc2c(F)c(Nc3ccc(Br)cc3Cl)c(C(=O)NOCCO)cc21" , assay HD-MY-Z, IC50 value: > 4 µM

---

Kindly state IC50 for each of the entries shown.
- Tested on: KALS-1
- assay.remarks: cells
- Type: functional, cell-based, Homo sapiens
- conditions: Homo sapiens, KALS-1
- Description: SANGER: Inhibition of human KALS-1 cell growth in a cell viability assay.

Measured IC50, "CCN(CC)CCCCNc1ncc2cc(-c3cc(OC)cc(OC)c3)c(NC(=O)NC(C)(C)C)nc2n1" : > 2 µM

The value of IC50 measured for the compound "C#Cc1cccc(Nc2ncnc3cc(OCCOC)c(OCCOC)cc23)c1" turned out to be > 2 µM

Entry "CC[C@H](CO)Nc1nc(NCc2ccccc2)c2ncn(C(C)C)c2n1" , IC50 reported as > 16 µM

Reported IC50 ( CC(C)CCN1c2nc(Nc3cc(F)c(O)c(F)c3)ncc2N(C)C(=O)C1C (centres undefined) ) = > 5 µM

---

- Test system: EFO-27
- assay.remarks: cells
- Format: functional, cell-based, Homo sapiens
- conditions: Homo sapiens, EFO-27
- Description: SANGER: Inhibition of human EFO-27 cell growth in a cell viability assay.
property: IC50

The measured IC50 associated with "N#Cc1c(O)c2c(-c3ccc(-c4ccccc4O)cc3)csc2[nH]c1=O" reads > 1.02 µM

// field: IC50; key: "COc1cc2c(Nc3ccc(NC(=O)c4ccccc4)cc3)ncnc2cc1OCCCN1CCOCC1" ; value = > 4 µM

Memo: "Oc1ccc2ccccc2c1SSc1c(O)ccc2ccccc12" , reported IC50: > 32 µM
